- target-desc: T1, human CD3e/g antigen (ACRO, catalog number CDG-H52W5) (human, UniProt P07766 23-126; P09693 23-116)
- T1 construct: Bought reagent used as the Biacore analyte; also called hCD3e/g
- measurement-notes: SPR (Biacore 8K), antibody captured via anti-human Fc
readout: Kd
# number then unit; no other words

In plain terms, hAb001-26 (antibody, V domains shown, Humanized; constant regions not specified) VH: QVQLVQSGAEVKKPGASVKVSCKASGYSFTNYYMHWVRQAPGQRLEWIGWTYPGNNNIKYNEKFKGRATITADTSASTAYMELSSLRSEDTAVYYCARDGYGYYFFDYWGQGTLVTVSS VL: DIVMTQSPDSLAVSLGERATINCKSSQSLLNNRTRKNYLAWYQQKPGQPPKLLIYWASTRESGVPDRFTGSGSGTDFTLTISSLQAEDVAVYYCKQSYTLRTFGGGTKLEIK has a documented Kd of 17.4 nM

# Kd (binder: hAb007-22 (antibody, V domains shown, Humanized; constant regions not specified) VH: QVQLVQSGAEVKKPGASVKVSCKASGSTFTDNYIHWVRQAPGQRLEWIGWIYPGSVNIKYNEKFKDRVTITADTSASTAYMELSSLRSEDTAVYYCARDISRYYFDYWGQGTTVTVSS VL: DIVMTQSPDSLAVSLGERATINCKSSQSLLNSRTRKNYLAWYQQKPGQPPKLLIYWASTRESGVPDRFTGSGSGTDFTLTISSLQAEDVAVYYCKQSFILRTFGGGTKLEIK ) is 13.3 nM

Item: hAb007-24 (antibody, V domains shown, Humanized; constant regions not specified) VH: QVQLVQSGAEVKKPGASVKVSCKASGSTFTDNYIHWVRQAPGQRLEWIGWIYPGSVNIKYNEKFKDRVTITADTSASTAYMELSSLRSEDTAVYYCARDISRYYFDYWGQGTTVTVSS VL: DIVMTQSPDSLAVSLGERATMNCKSSQSLLNSRTRKNYLAWYQQKPGQPPKLLIYWASTRESGVPDRFTGSGSGTDFTLTISSLQAEDVAVYYCKQSFILRTFGGGTKLEIK | Kd: 6.16 nM
